Each entry below carries its measured pIC50, system: PIM1 (Homo sapiens, UniProt P11309).
Sequence (P11309 whole entry): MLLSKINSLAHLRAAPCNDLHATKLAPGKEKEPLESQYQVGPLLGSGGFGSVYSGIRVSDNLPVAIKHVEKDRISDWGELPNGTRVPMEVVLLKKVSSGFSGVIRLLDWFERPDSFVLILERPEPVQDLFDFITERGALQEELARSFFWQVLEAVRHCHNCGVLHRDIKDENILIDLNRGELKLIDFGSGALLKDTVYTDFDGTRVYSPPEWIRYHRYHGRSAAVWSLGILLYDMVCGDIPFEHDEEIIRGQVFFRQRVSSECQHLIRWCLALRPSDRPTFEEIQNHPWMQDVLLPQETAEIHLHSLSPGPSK
pIC50: −log10 of the molar value.

Below are worked cases with known answers.
CC(C)(O)C12CCC(Nc3ccc4ncc(-c5cc(C6CC6)[nH]n5)n4n3)(CC1)CC2 : > 8.00
CCc1cc(-c2cnc3ccc(NC45CCC(O)(CC4)C5)nn23)n[nH]1 : 7.00 to 8.00

Given the compound OC12CCC(Nc3ccc4ncc(-c5cc(C6CC6)[nH]n5)n4n3)(CC1)C2 and test system PIM1 (Homo sapiens, UniProt P11309), the measured pIC50 is 7.00 to 8.00

Noted pIC50 for Cc1cc(-c2cnc3ccc(NC45CCC(C(C)(C)O)(CC4)CC5)nn23)n[nH]1 , tested on PIM1 (Homo sapiens, UniProt P11309): > 8.00

Tested on PIM1 (Homo sapiens, UniProt P11309), the item Cc1cc(-c2cnc3ccc(NC45CCC(O)(CC4)C5)nn23)n[nH]1 showed pIC50 equal to < 7.00

---

Recorded pEC50, one value per entry.
- Tested on: Caspase 3/7
- Assay remarks: Apoptosis assay (Caspase 3/7) in A549 cells
- Type: cell-based
- Condition label: Homo sapiens, 24 hours, read-out: EC50, Caspase 3/7 activation
pEC50: −log10 of the molar value.

Cc1cc(-c2cnc3ccc(NC45CCC(C(C)(C)O)(CC4)CC5)nn23)n[nH]1 [Compound 2] : 4.70 to 6.00

Let's switch to this compound now.
The compound identified as CC(C)(O)C12CCC(Nc3ccc4ncc(-c5cc(C6CC6)[nH]n5)n4n3)(CC1)CC2 [Compound 4] registered its pEC50 at 4.70 to 6.00

---

Target or system PIM2 (Homo sapiens); recorded quantity IC50.

Cc1cc(-c2cnc3ccc(NC45CCC(C(C)(C)O)(CC4)CC5)nn23)n[nH]1 [Compound 2] : > 100 nM

// moving on: another record for IC50
IC50 on PIM2 (Homo sapiens) for CCc1cc(-c2cnc3ccc(NC45CCC(C(C)(C)O)(CC4)CC5)nn23)n[nH]1 [Compound 6] is > 100 nM

---

Record: IC50 reported on PIM3 (Homo sapiens, UniProt Q86V86).

Looking up Cc1cc(-c2cnc3ccc(NC45CCC(C(C)(C)O)(CC4)CC5)nn23)n[nH]1 , I found its IC50 recorded as < 10 nM

Item: CC(C)(O)C12CCC(Nc3ccc4ncc(-c5cc(C6CC6)[nH]n5)n4n3)(CC1)CC2 | IC50: < 10 nM
